Target: acetylcholinesterase (AChE)
Test: colorimetric kinetic kit assay, […] nm
Assay type: biochemical
Settings: room temperature, 10-15 min preincubation
reported_metric: AChE (μg mL^-1 ± SD) (µg/mL)

C[N+](C)(CCl)CCc1ccc(O)cc1 ... 0.076
O=c1c(O)c(-c2ccc(O)cc2)oc2cc(O)cc(O)c12 [compound 2, 3,4′,5,7-tetrahydroxyflavone] ... 1.099
O=C1C[C@@H](c2ccc(O)cc2)Oc2cc(O)cc(O)c21 ... 0.212
CC1=CC(=O)CC(C)(C)[C@@]1(O)/C=C/[C@@H](C)O[C@@H]1O[C@H](CO)[C@@H](O)[C@H](O)[C@H]1O [compound 4, vomifoliol-9-O-β-D-glucopyranoside] ... 0.452

###

Molecular target: acetylcholinesterase (AChE)
Experiment: colorimetric kinetic kit assay, […] nm
Assay type: biochemical
Settings: room temperature, 10-15 min preincubation
reported_metric: AChE (μg mL^-1 ± SD) (µg/mL)

CC(=O)[N+](C)(C)CCc1ccc(O)cc1 [compound 6, N-acetyl hordenine] ... 2.255
COc1c(-c2ccc(O)cc2)oc2cc(O)cc(O)c2c1=O [compound 3, isokaempferide] ... 0.483
CC(=O)[N+](C)(CCl)CCc1ccc(O)cc1 (stereo not drawn) [compound 7] ... 0.607

###

Target: β-secretase (BACE-1) (Homo sapiens, UniProt P56817)
Sequence (P56817 46-501): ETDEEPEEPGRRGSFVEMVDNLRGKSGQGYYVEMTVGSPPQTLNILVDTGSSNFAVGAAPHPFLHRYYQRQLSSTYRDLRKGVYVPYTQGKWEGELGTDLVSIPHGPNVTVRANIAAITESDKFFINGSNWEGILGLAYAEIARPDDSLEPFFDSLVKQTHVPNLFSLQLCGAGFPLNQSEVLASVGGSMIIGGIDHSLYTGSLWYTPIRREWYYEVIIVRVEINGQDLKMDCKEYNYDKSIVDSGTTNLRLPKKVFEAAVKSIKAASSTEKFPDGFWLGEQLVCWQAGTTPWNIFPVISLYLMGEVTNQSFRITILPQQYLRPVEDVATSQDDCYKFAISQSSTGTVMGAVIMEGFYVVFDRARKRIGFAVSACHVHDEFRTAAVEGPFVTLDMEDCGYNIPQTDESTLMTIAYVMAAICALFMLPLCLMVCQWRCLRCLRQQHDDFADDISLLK
Binarize IC50 at 500 nM; below is Y, at or above is N.

O=c1c(O)c(-c2ccc(O)cc2)oc2cc(O)cc(O)c12 [compound 2, 3,4′,5,7-tetrahydroxyflavone] ... N
C[N+](C)(CCl)CCc1ccc(O)cc1 ... N
CC1=CC(=O)CC(C)(C)[C@@]1(O)/C=C/[C@@H](C)O[C@@H]1O[C@H](CO)[C@@H](O)[C@H](O)[C@H]1O [compound 4, vomifoliol-9-O-β-D-glucopyranoside] ... Y
COc1c(-c2ccc(O)cc2)oc2cc(O)cc(O)c2c1=O [compound 3, isokaempferide] ... Y
O=C1C[C@@H](c2ccc(O)cc2)Oc2cc(O)cc(O)c21 ... N
CC(=O)[N+](C)(C)CCc1ccc(O)cc1 ... N
